# procedure-details: Pharmacokinetics of LN002 in rat plasma after single intravenous injection or oral gavage
# Type: in vivo, Sprague–Dawley (SD) rats
# applied-conditions: both sexes, Sprague-Dawley, rat, plasma, po, 400 mg/kg, plasma, oral 400 mg/kg, rats, n = 6, mean ± SD; read-out: AUC0–24 h
measure-name: AUC(0-t) (ng·h/mL)
Express the result in ng·h/mL but write the number alone.

Exercise: Which AUC(0-t) reading was recorded for the compound N#C/C(=C\c1c[nH]nc1-c1ccccc1)c1nn(-c2ccccc2)c(N)c1C#N [LN002] ?
Key: 7500

* * *

# procedure-details: Tissue distribution of LN002 after oral administration in rats
# Type: in vivo, Sprague–Dawley (SD) rats
# applied-conditions: both sexes, Sprague-Dawley, rat; kidney, oral 200 mg/kg, SD rats, n = 6, mean ± SD
measure-name: half-life (min)
Please reply with the bare figure in min and do not write the unit itself.

Exercise: Request the reported half-life associated with N#C/C(=C\c1c[nH]nc1-c1ccccc1)c1nn(-c2ccccc2)c(N)c1C#N
Key: 302

* * *

# procedure-details: Pharmacokinetics of LN002 in rat plasma after single intravenous injection or oral gavage
# Type: in vivo, Sprague–Dawley (SD) rats
# applied-conditions: both sexes, Sprague-Dawley, rat; plasma, oral 200 mg/kg, rats, n = 6, mean ± SD
measure-name: Vd/F (L/kg)
Form entry: value (L/kg) — number only.

Exercise: So what does the record say about Vd/F for N#C/C(=C\c1c[nH]nc1-c1ccccc1)c1nn(-c2ccccc2)c(N)c1C#N ?
Key: 764

* * *

# procedure-details: Pharmacokinetics of LN002 in rat plasma after single intravenous injection or oral gavage
# Type: in vivo, Sprague–Dawley (SD) rats
# applied-conditions: both sexes, Sprague-Dawley, rat, plasma, po, 400 mg/kg, plasma, oral single dose, range across 100, 200 and 400 mg/kg, rats; read-out: AUC0–24 h
measure-name: AUC(0-t)

Exercise: // returns reported AUC(0-t) for input N#C/C(=C\c1c[nH]nc1-c1ccccc1)c1nn(-c2ccccc2)c(N)c1C#N
Key: 2280 to 7500 ng·h/mL

* * *

# procedure-details: Pharmacokinetics of LN002 in rat plasma after single intravenous injection or oral gavage
# Assay type: in vivo, Sprague–Dawley (SD) rats
# applied-conditions: both sexes, Sprague-Dawley, rat, plasma, po, 400 mg/kg, oral single dose, range across 100, 200 and 400 mg/kg, rats; read-out: F
measure-name: bioavailability

Exercise: For the compound N#C/C(=C\c1c[nH]nc1-c1ccccc1)c1nn(-c2ccccc2)c(N)c1C#N , what bioavailability is on record?
Key: 0.27 to 0.32%

* * *

# procedure-details: Pharmacokinetics of LN002 in rat plasma after single intravenous injection or oral gavage
# Format: in vivo, Sprague–Dawley (SD) rats
# applied-conditions: both sexes, Sprague-Dawley, rat, plasma, po, 200 mg/kg, oral 200 mg/kg, rats, n = 6, mean ± SD
measure-name: half-life (h)
Provide the reading as a plain figure in h.

Exercise: Field request: half-life | item: N#C/C(=C\c1c[nH]nc1-c1ccccc1)c1nn(-c2ccccc2)c(N)c1C#N
Key: 18

* * *

# procedure-details: Tissue distribution of LN002 after oral administration in rats
# Type: in vivo, Sprague–Dawley (SD) rats
# applied-conditions: both sexes, Sprague-Dawley, rat; spleen, oral 200 mg/kg, SD rats, n = 6
# Method: Thirty SD rats (15 for each sex) were randomly and equally assigned to 5 groups (half male and half female). The rats in each group were euthanized with pentobarbital sodium (a dose of 180 mg/kg) at five different time points: 0.5, 2, 6, 12 and 24 h after oral administration at 200 mg/kg LN002. […] A Shimadzu LC-20A system (Shimadzu Technologies, Kyoto, Japan) equipped with a LabSolutions system (version 5.1) system was used for HPLC analysis. […] The analytes were detected using a UV detector at 333 nm. […]
measure-name: Tmax (min)
Response body: numeric value in min, unit text excluded.

Exercise: Suppose we examine the compound N#C/C(=C\c1c[nH]nc1-c1ccccc1)c1nn(-c2ccccc2)c(N)c1C#N ; what Tmax value has been reported?
Key: 30
